The origin of these recorded values is paper PMC8041304.

Assay: Density measurements: partial molar volume and thermal expansivity of the solute
Assay type: physicochemical
Conditions: 50 mM phosphate buffer pH 11; 20, 25, 30 °C
Note to self: values exactly at 0.4 cm^3·mol^–1·K^–1 are condition met. So α2^0, thermal volumetric expansivity of the solute at or above 0.4 cm^3·mol^–1·K^–1 is condition met, below is condition not met.

hey, is α2^0, thermal volumetric expansivity of the solute for this one >= 0.4 cm^3·mol^–1·K^–1? Brc1cc2nn[nH]c2cc1Br
condition not met

hey, is α2^0, thermal volumetric expansivity of the solute for this one >= 0.4 cm^3·mol^–1·K^–1? Brc1cccc2n[nH]nc12
condition not met

hey, is α2^0, thermal volumetric expansivity of the solute for this one >= 0.4 cm^3·mol^–1·K^–1? Brc1ccc(Br)c2n[nH]nc12
condition not met

hey, is α2^0, thermal volumetric expansivity of the solute for this one >= 0.4 cm^3·mol^–1·K^–1? Brc1cc(Br)c2[nH]nnc2c1Br
condition met

hey, is α2^0, thermal volumetric expansivity of the solute for this one >= 0.4 cm^3·mol^–1·K^–1? Brc1ccc2n[nH]nc2c1
condition not met

hey, is α2^0, thermal volumetric expansivity of the solute for this one >= 0.4 cm^3·mol^–1·K^–1? Brc1c(Br)c(Br)c2[nH]nnc2c1Br
condition met

hey, is α2^0, thermal volumetric expansivity of the solute for this one >= 0.4 cm^3·mol^–1·K^–1? Brc1ccc2[nH]nnc2c1Br
condition not met

hey, is α2^0, thermal volumetric expansivity of the solute for this one >= 0.4 cm^3·mol^–1·K^–1? Brc1cc2[nH]nnc2c(Br)c1Br
condition met

###

Kindly supply the reported ΔTm (°C) at pH 7.5 values for the records listed here.
Biological target: hCK2α (Homo sapiens)
Construct: made in house
Test: Fluorescence-monitored thermal denaturation (nanoDSF) of hCK2α complexes
Assay type: binding
Details: unfolding temperature with ligand minus without, protein 2.5 μM, ligand 25 μM
One number for each entry, in °C.

>  <chemical_string>
Brc1ccc2[nH]nnc2c1Br

>  <target_entity>
hCK2α (Homo sapiens)

>  <ΔTm (°C) at pH 7.5>
4.4

$$$$

For every record below, what is its ΔTm (°C) at pH 7.5?
1. Brc1ccc2n[nH]nc2c1
2. Brc1cc2nn[nH]c2cc1Br
3. Brc1cc2[nH]nnc2c(Br)c1Br
4. Brc1cc(Br)c2n[nH]nc2c1
5. Brc1cc(Br)c2[nH]nnc2c1Br
6. Brc1ccc(Br)c2n[nH]nc12
7. Brc1cccc2n[nH]nc12

2.0
7.8
8.7
4.0
4.6
2.0
0.7

###

Target: hCK2α (Homo sapiens, UniProt P68400)
Construct: made in house
Sequence (P68400 whole entry): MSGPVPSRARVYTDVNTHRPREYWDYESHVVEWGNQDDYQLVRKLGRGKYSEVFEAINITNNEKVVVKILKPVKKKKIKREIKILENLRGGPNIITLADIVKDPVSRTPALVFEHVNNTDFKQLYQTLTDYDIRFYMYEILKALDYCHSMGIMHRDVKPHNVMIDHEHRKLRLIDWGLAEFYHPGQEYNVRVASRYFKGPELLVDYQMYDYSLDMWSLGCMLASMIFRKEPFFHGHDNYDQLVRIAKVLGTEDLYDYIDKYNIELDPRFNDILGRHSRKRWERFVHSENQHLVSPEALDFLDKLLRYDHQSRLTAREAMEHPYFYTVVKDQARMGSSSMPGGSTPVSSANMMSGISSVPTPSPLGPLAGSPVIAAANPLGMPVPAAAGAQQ
Test: Isothermal titration calorimetry (MicroCal iTC200), reverse titration
Format: binding
Conditions: estimated from the linear fit of ΔS(T)
endpoint_label: Ts, temperature at which the entropy change upon ligand binding is zero (K)
One number for each entry, in K.

Known results for molecules:
>  <molecule>
Brc1cc2nn[nH]c2cc1Br [5,6-Br2Bt, 5,6-bromobenzotriazole]

>  <test_value>
268

$$$$
>  <molecule>
Brc1ccc2n[nH]nc2c1 [5-BrBt]

>  <test_value>
281

$$$$
>  <molecule>
Brc1cc(Br)c2[nH]nnc2c1Br [4,5,7-Br3Bt]

>  <test_value>
316

$$$$
>  <molecule>
Brc1cc(Br)c2n[nH]nc2c1 [4,6-Br2Bt]

>  <test_value>
301

$$$$
>  <molecule>
Brc1cc2[nH]nnc2c(Br)c1Br [4,5,6-Br3Bt]

>  <test_value>
280

$$$$

Give Ts, temperature at which the entropy change upon ligand binding is zero for this entry on hCK2α (Homo sapiens, UniProt P68400): Brc1ccc2[nH]nnc2c1Br [4,5-Br2Bt]
299
